targetOrSystem: Platelet-derived growth factor receptor alpha (Homo sapiens, UniProt P16234)
Sequence (P16234 whole entry): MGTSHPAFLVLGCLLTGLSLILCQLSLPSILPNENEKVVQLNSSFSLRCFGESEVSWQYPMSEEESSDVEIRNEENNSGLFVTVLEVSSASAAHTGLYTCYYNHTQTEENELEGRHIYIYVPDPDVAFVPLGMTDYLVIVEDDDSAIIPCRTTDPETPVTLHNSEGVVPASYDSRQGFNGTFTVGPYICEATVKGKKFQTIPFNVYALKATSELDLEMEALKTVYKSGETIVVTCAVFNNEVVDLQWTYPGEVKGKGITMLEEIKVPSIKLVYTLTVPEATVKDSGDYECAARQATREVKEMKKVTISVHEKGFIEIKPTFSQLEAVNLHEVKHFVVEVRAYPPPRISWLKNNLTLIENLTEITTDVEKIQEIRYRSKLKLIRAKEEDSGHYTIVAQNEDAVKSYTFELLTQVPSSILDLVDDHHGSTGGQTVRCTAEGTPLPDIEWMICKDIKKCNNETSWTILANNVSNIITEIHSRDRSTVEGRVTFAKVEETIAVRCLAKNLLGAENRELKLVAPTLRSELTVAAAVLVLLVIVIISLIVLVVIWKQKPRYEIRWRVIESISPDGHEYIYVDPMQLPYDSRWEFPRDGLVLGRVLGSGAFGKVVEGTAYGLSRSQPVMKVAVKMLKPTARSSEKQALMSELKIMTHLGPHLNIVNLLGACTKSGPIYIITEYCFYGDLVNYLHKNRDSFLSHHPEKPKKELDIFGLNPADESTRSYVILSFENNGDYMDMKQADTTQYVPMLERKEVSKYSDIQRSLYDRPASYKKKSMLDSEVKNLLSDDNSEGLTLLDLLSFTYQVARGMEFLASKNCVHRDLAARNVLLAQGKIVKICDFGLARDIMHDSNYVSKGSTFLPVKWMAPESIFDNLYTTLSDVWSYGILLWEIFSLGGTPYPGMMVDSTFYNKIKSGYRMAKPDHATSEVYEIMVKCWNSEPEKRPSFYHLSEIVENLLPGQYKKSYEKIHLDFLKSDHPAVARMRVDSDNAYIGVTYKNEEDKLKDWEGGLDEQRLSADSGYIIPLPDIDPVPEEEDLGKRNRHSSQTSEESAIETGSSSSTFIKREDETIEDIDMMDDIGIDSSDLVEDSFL
readoutLabel: pIC50
Numbers only, as −log10 of the molar value.

## Task // map COc1cc2c(Oc3ccc(NC(=O)c4nn(-c5ccccc5F)c(=O)n4C)cc3F)ccnc2cc1OCCCN1CCN(C)CC1 to recorded pIC50 (system: Platelet-derived growth factor receptor alpha (Homo sapiens, UniProt P16234))
## Result 7.02

---

What pIC50 was measured for each of the following?
protocolDetails: Cytotoxicity against c-Met over-expressed human MKN45 cells assessed as cell growth inhibition after 72 hrs by MTT assay
conditionContext: MKN-45, 72 h
One number for each entry, as −log10 of the molar value.

Example cases with answers are listed next.
COc1ccc(-n2nc(C(=O)Nc3ccc(Oc4ccnc5cc(OCCCN6CCC(C)CC6)c(OC)cc45)c(F)c3)n(C)c2=O)cc1 6.23
COc1ccc(-n2nc(C(=O)Nc3ccc(Oc4ccnc5cc(OCCCN6CCN(C)CC6)c(OC)cc45)c(F)c3)n(C)c2=O)cc1 5.78
COc1cc2c(Oc3ccc(NC(=O)c4nn(-c5ccccc5Cl)c(=O)n4C)cc3F)ccnc2cc1OCCCN1CCN(C)CC1 7.06
COc1cc2c(Oc3ccc(NC(=O)c4nn(-c5ccccc5)c(=O)n4C)cc3F)ccnc2cc1OCCCN1CCCC1 5.94
COc1cc2c(Oc3ccc(NC(=O)c4nn(-c5ccccc5OC(F)(F)F)c(=O)n4C4CC4)cc3F)ccnc2cc1OCCCN1CCC(C)CC1 7.00

Hey, quick one: what's pIC50 for each of these?
1. COc1cc2c(Oc3ccc(NC(=O)c4nn(-c5ccccc5F)c(=O)n4C)cc3F)ccnc2cc1OCCCN1CCC(C)CC1
2. COc1cc2c(Oc3ccc(NC(=O)c4nn(-c5ccc(Cl)cc5Cl)c(=O)n4C)cc3F)ccnc2cc1OCCCN1CCN(C)CC1

## Result
6.72
6.74
